List of IC50 (cell viability) values.
- System: KU-812
- CONDITION: 72 h

>  <MOLECULE>
N#C/C(=C\c1ccc(O)cc1)C(=O)O [alpha-cyano-4-hydroxycinnamic acid]

>  <STUDY_TARGET>
KU-812

>  <IC50 (cell viability)>
> 10 µM

$$$$
>  <MOLECULE>
O=C(Nc1ccccc1)c1cc([N+](=O)[O-])ccc1Cl

>  <STUDY_TARGET>
KU-812

>  <IC50 (cell viability)>
> 10 µM

$$$$
>  <MOLECULE>
CC[C@H](C)[C@H](N)C(=O)N1CCSC1

>  <STUDY_TARGET>
KU-812

>  <IC50 (cell viability)>
> 10 µM

$$$$
>  <MOLECULE>
CCn1c(=Cc2cccc[n+]2CC)sc(=C2Sc3ccccc3N2C)c1=O

>  <STUDY_TARGET>
KU-812

>  <IC50 (cell viability)>
> 10 µM

$$$$

# next molecule below
// IC50 (cell viability) lookup, molecule = CC(C)(C)c1ccc(S(=O)(=O)NCc2ccc(C(=O)Nc3cccnc3)cc2)cc1 , result: 0.109 µM
